tested on: three pancreatic cancer cell lines; assay: MTT assay, three pancreatic cancer cell lines; type: cell-based; settings: read-out: Mark: IC50 lower than 1 μM in at least one cell line, Table 1
Quick reference: IC50 of the listed items.

INSERT INTO measurements (chemsmiles, testvalue) VALUES
  ('Cc1cnc(C(=O)Nc2cc(OCCN3CCOCC3)cc3cccnc23)cn1', '< 1000 nM'),
  ('Cc1cnc(C(=O)Nc2cc(F)cc3cccnc23)cn1', '< 1000 nM'),
  ('O=C(Nc1cc(OCCF)cc2cccnc12)c1cnccn1', '< 1000 nM'),
  ('O=C(Nc1cc(F)cc2cccnc12)c1cnccn1', '< 1000 nM'),
  ('CC(C)(C)OC(=O)NCCOc1cc(NC(=O)c2cnccn2)c2ncccc2c1', '< 1000 nM');

Task: # lookup: IC50 of O=C(Nc1ccc(Br)c2cccnc12)c1cnccn1
Result: < 1000 nM

Task: # lookup: IC50 of COc1cc(NC(=O)c2cnccn2)c2ncccc2c1
Result: < 1000 nM

Task: # lookup: IC50 of O=C(Nc1cccc2cccnc12)c1cnccn1
Result: < 1000 nM

Task: # lookup: IC50 of COc1cc(NC(=O)c2cnc(C)cn2)c2ncccc2c1
Result: < 1000 nM
